Items are presented alongside their recorded Serum concentrations of fatty acid forms.
Assay: Serum fatty acid form concentrations (complex lipidomics) in dolphins fed modified diet
Format: in vivo, bottlenose dolphin (Tursiops truncatus)
Conditions: case dolphins fed modified diet (n = 20), Month 6
Procedure: Determination of serum fatty acid concentrations, including a variety of fatty acid classes, were performed by Metabolon, Inc. (Durham, N.C.) using complex lipidomics. […] Each sample was subjected to 2 analyses, with IMS-MS conditions optimized for lipid classes monitored in each analysis. […] Individual lipid species were quantified based on the ratio of signal intensity for target compounds to the signal intensity for an assigned internal standard of known concentration. […]
Form entry: value (nM) — number only.

{"CHEM SMILES": "CCCCCCCCCCCCC/C=C/[C@@H](O)[C@H](CO)NC(=O)CCCCCCCCCCCCCCCCCCC", "UNIT DESCRIPTOR": "nM", "TEST VALUE": 410}
{"CHEM SMILES": "CCCCCCCCCCCCCCCCCCCCCCCC(=O)N[C@@H](CO)[C@H](O)CCCCCCCCCCCCCCC", "UNIT DESCRIPTOR": "nM", "TEST VALUE": 120}

Now look at this entry.
Value of measured Serum concentrations of fatty acid forms for the entry CCCCCCCCCCCCCCC(=O)O[C@H]1CC[C@@]2(C)C(=CC[C@H]3[C@@H]4CC[C@H]([C@H](C)CCCC(C)C)[C@@]4(C)CC[C@@H]32)C1 : 64000

----------
Items are presented alongside their recorded Serum concentrations of fatty acid forms.
test: Serum fatty acid form concentrations (complex lipidomics) in dolphins fed modified diet; type: in vivo, bottlenose dolphin (Tursiops truncatus); conditions: case dolphins fed modified diet (n = 20), Month 1
Form entry: value (µM) — number only.

Examples with their reported Serum concentrations of fatty acid forms follow.
{"CHEM SMILES": "CCCCCCCCCCCCCCC(=O)O[C@H]1CC[C@@]2(C)C(=CC[C@H]3[C@@H]4CC[C@H]([C@H](C)CCCC(C)C)[C@@]4(C)CC[C@@H]32)C1", "Serum concentrations of fatty acid forms [µM]": 61}
{"CHEM SMILES": "CCCCCCCCCCCCCCCCCCCCCC(=O)O[C@H]1CC[C@@]2(C)C(=CC[C@H]3[C@@H]4CC[C@H]([C@H](C)CCCC(C)C)[C@@]4(C)CC[C@@H]32)C1", "Serum concentrations of fatty acid forms [µM]": 5.7}
{"CHEM SMILES": "CCCCCCCCCCCCCCCCC(=O)O[C@H]1CC[C@@]2(C)C(=CC[C@H]3[C@@H]4CC[C@H]([C@H](C)CCCC(C)C)[C@@]4(C)CC[C@@H]32)C1", "Serum concentrations of fatty acid forms [µM]": 18}
{"CHEM SMILES": "CCCCCCCCCCCCCCCCCCCCCCCC(=O)N[C@@H](CO)[C@H](O)CCCCCCCCCCCCCCC", "Serum concentrations of fatty acid forms [µM]": 0.11}
{"CHEM SMILES": "CCCCCCCCCCCCCCCC(=O)O[C@H]1CC[C@@]2(C)C(=CC[C@H]3[C@@H]4CC[C@H]([C@H](C)CCCC(C)C)[C@@]4(C)CC[C@@H]32)C1", "Serum concentrations of fatty acid forms [µM]": 226}
{"CHEM SMILES": "CCCCCCCCCCCCCCCCCCCC(=O)O", "Serum concentrations of fatty acid forms [µM]": 4.4}
{"CHEM SMILES": "CCCCCCCCCCCCCCC(=O)O", "Serum concentrations of fatty acid forms [µM]": 4.2}
{"CHEM SMILES": "CCCCCCCCCCCCC/C=C/[C@@H](O)[C@H](CO)NC(=O)CCCCCCCCCCCCCCCCCCCCC", "Serum concentrations of fatty acid forms [µM]": 0.23}
{"CHEM SMILES": "CCCCCCCCCCCCC/C=C/[C@@H](O)[C@H](CO)NC(=O)CCCCCCCCCCCCCCCCCCC", "Serum concentrations of fatty acid forms [µM]": 0.39}

Now look at this entry.
Value of measured Serum concentrations of fatty acid forms for the entry CCCCCCCCCCCCCC(=O)O[C@H]1CC[C@@]2(C)C(=CC[C@H]3[C@@H]4CC[C@H]([C@H](C)CCCC(C)C)[C@@]4(C)CC[C@@H]32)C1 : 86

----------
assay: Total serum fatty acid concentrations in dolphins fed modified diet; assay type: in vivo, bottlenose dolphin (Tursiops truncatus); settings: bottlenose dolphin (Tursiops truncatus), in vivo; Case dolphins fed modified diet (n = 20), Month 1, 2 h postprandial
Items are presented alongside their recorded concentration at 1 month.
Form entry: value (µM) — number only.

{"COMPOUND": "CCCCCCCCCCCCCCCC(=O)O [C16:0, palmitic acid]", "concentration at 1 month [µM]": 1370}

Now look at this entry.
Value of measured concentration at 1 month for the entry CCCCCCCCCCCCCCCCCCCCCC(=O)O [C22:0, behenic acid] : 21

----------
Items are presented alongside their recorded Serum concentrations of fatty acid forms.
assay: Serum fatty acid form concentrations (complex lipidomics) in dolphins fed modified diet; type: in vivo, bottlenose dolphin (Tursiops truncatus); conditions: case dolphins fed modified diet (n = 20), Month 3
Form entry: value (nM) — number only.

Examples with their reported Serum concentrations of fatty acid forms follow.
{"CHEM SMILES": "CCCCCCCCCCCCC/C=C/[C@@H](O)[C@H](CO)NC(=O)CCCCCCCCCCCCCCCCCCCCC", "TEST VALUE": 260}
{"CHEM SMILES": "CCCCCCCCCCCCCCC(=O)O[C@H]1CC[C@@]2(C)C(=CC[C@H]3[C@@H]4CC[C@H]([C@H](C)CCCC(C)C)[C@@]4(C)CC[C@@H]32)C1", "TEST VALUE": 66000}
{"CHEM SMILES": "CCCCCCCCCCCCCCCCCCCCCCCC(=O)N[C@@H](CO)[C@H](O)CCCCCCCCCCCCCCC", "TEST VALUE": 130}

Value of measured Serum concentrations of fatty acid forms for the entry CCCCCCCCCCCCCCC(=O)O : 3600

----------
experiment: Serum fatty acid form concentrations (complex lipidomics) in dolphins fed modified diet; type: in vivo, bottlenose dolphin (Tursiops truncatus); conditions: case dolphins fed modified diet (n = 20), Month 0 (baseline)
MEASURE NAME: Serum concentrations of fatty acid forms (nM)
Form entry: value (nM) — number only.

{"MOLECULE": "CCCCCCCCCCCCCCC(=O)O [C15:0 FFA]", "Serum concentrations of fatty acid forms / nM": 3800}
{"MOLECULE": "CCCCCCCCCCCCCCCCCCCCCCCC(=O)N[C@@H](CO)[C@H](O)CCCCCCCCCCCCCCC [C24:0 DCER]", "Serum concentrations of fatty acid forms / nM": 70}

Value of measured Serum concentrations of fatty acid forms for the entry CCCCCCCCCCCCC/C=C/[C@@H](O)[C@H](CO)NC(=O)CCCCCCCCCCCCCCCCCCC [C20:0 CER] : 500
